- TARGET DESC: human IL-6 (human, UniProt P05231 30-212)
- Sequence (P05231 30-212 limits assumed): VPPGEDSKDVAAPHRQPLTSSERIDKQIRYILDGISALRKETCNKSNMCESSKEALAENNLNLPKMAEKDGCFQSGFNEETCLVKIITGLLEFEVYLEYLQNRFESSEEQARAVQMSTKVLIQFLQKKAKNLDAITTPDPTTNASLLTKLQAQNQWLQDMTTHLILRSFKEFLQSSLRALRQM
- PROTOCOL DETAILS: SPR (Biacore), supernatant antibody on Protein A chip, IL-6 flowed, 37 C
In this section we review reported koff values for a set of binders.

BINDER	koff
anti-IL-6 antibody, heavy chain S35V, G66D / light chain M32L, M50D, N52S, M88Q (antibody, human IgG1, V domains shown, Human IgG1) VH: EVQLVESGGGLVQPGGSLRLSCAASGFTFSPFAMVWVRQAPGKGLEWVAKISPGGSWTYYSDTVTDRFTFSLDTSKSTAYLQMNSLRAEDTAVYYCARQLWGYYALDIWGQGTLVTVSS VL: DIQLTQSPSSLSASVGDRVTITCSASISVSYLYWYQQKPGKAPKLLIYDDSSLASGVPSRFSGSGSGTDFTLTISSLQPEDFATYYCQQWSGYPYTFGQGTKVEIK	0.00137 s⁻¹
anti-IL-6 antibody, heavy chain S35F, G66D / light chain M32L, M50D, N52S, M88Q (antibody, human IgG1, V domains shown, Human IgG1) VH: EVQLVESGGGLVQPGGSLRLSCAASGFTFSPFAMFWVRQAPGKGLEWVAKISPGGSWTYYSDTVTDRFTFSLDTSKSTAYLQMNSLRAEDTAVYYCARQLWGYYALDIWGQGTLVTVSS VL: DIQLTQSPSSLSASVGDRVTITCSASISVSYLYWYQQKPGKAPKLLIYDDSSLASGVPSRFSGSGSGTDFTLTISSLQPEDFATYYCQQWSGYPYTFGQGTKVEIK	0.00484 s⁻¹
anti-IL-6 antibody, heavy chain T65K, G66D / light chain M32L, M50D, N52S, M88Q (antibody, human IgG1, V domains shown, Human IgG1) VH: EVQLVESGGGLVQPGGSLRLSCAASGFTFSPFAMSWVRQAPGKGLEWVAKISPGGSWTYYSDTVKDRFTFSLDTSKSTAYLQMNSLRAEDTAVYYCARQLWGYYALDIWGQGTLVTVSS VL: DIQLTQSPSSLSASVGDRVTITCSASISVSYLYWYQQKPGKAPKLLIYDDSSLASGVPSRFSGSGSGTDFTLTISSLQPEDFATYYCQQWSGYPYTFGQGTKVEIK	0.000579 s⁻¹
anti-IL-6 antibody, heavy chain T65Q, G66D / light chain M32L, M50D, N52S, M88Q (antibody, human IgG1, V domains shown, Human IgG1) VH: EVQLVESGGGLVQPGGSLRLSCAASGFTFSPFAMSWVRQAPGKGLEWVAKISPGGSWTYYSDTVQDRFTFSLDTSKSTAYLQMNSLRAEDTAVYYCARQLWGYYALDIWGQGTLVTVSS VL: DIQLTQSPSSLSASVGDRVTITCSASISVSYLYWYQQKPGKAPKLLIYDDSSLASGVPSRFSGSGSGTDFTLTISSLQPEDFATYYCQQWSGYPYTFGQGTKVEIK	0.000562 s⁻¹
anti-IL-6 antibody, heavy chain S35I, G66D / light chain M32L, M50D, N52S, M88Q (antibody, human IgG1, V domains shown, Human IgG1) VH: EVQLVESGGGLVQPGGSLRLSCAASGFTFSPFAMIWVRQAPGKGLEWVAKISPGGSWTYYSDTVTDRFTFSLDTSKSTAYLQMNSLRAEDTAVYYCARQLWGYYALDIWGQGTLVTVSS VL: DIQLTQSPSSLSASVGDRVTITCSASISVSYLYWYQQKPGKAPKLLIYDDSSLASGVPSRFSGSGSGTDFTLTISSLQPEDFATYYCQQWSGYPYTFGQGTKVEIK	0.00147 s⁻¹
anti-IL-6 antibody, heavy chain I51V, G66D / light chain M32L, M50D, N52S, M88Q (antibody, human IgG1, V domains shown, Human IgG1) VH: EVQLVESGGGLVQPGGSLRLSCAASGFTFSPFAMSWVRQAPGKGLEWVAKVSPGGSWTYYSDTVTDRFTFSLDTSKSTAYLQMNSLRAEDTAVYYCARQLWGYYALDIWGQGTLVTVSS VL: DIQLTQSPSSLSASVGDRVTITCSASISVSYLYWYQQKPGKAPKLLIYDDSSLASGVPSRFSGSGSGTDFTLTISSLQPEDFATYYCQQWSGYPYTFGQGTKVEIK	0.00195 s⁻¹
anti-IL-6 antibody, heavy chain S35E, G66D / light chain M32L, M50D, N52S, M88Q (antibody, human IgG1, V domains shown, Human IgG1) VH: EVQLVESGGGLVQPGGSLRLSCAASGFTFSPFAMEWVRQAPGKGLEWVAKISPGGSWTYYSDTVTDRFTFSLDTSKSTAYLQMNSLRAEDTAVYYCARQLWGYYALDIWGQGTLVTVSS VL: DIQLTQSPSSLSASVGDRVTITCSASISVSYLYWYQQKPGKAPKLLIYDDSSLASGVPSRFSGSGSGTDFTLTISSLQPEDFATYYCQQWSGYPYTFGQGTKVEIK	0.00189 s⁻¹
anti-IL-6 antibody, heavy chain T63G, G66D / light chain M32L, M50D, N52S, M88Q (antibody, human IgG1, V domains shown, Human IgG1) VH: EVQLVESGGGLVQPGGSLRLSCAASGFTFSPFAMSWVRQAPGKGLEWVAKISPGGSWTYYSDGVTDRFTFSLDTSKSTAYLQMNSLRAEDTAVYYCARQLWGYYALDIWGQGTLVTVSS VL: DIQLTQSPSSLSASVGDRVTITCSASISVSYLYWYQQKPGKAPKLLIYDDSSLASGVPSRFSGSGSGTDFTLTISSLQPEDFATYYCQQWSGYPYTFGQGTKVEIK	0.00045 s⁻¹
anti-IL-6 antibody, heavy chain T63W, G66D / light chain M32L, M50D, N52S, M88Q (antibody, human IgG1, V domains shown, Human IgG1) VH: EVQLVESGGGLVQPGGSLRLSCAASGFTFSPFAMSWVRQAPGKGLEWVAKISPGGSWTYYSDWVTDRFTFSLDTSKSTAYLQMNSLRAEDTAVYYCARQLWGYYALDIWGQGTLVTVSS VL: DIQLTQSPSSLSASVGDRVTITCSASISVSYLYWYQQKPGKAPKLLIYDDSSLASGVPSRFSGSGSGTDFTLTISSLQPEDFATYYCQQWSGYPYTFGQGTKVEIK	0.000449 s⁻¹
anti-IL-6 antibody, heavy chain S35L, G66D / light chain M32L, M50D, N52S, M88Q (antibody, human IgG1, V domains shown, Human IgG1) VH: EVQLVESGGGLVQPGGSLRLSCAASGFTFSPFAMLWVRQAPGKGLEWVAKISPGGSWTYYSDTVTDRFTFSLDTSKSTAYLQMNSLRAEDTAVYYCARQLWGYYALDIWGQGTLVTVSS VL: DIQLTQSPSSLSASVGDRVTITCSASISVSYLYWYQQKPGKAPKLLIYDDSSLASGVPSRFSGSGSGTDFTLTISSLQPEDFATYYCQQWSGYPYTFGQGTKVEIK	0.00243 s⁻¹

Attribution: patent US20240209076A1
